Target: mitochondrial complex I (Homo sapiens, UniProt O75251+O75306+P03886)
Experiment: Complex I-dependent oxygen consumption (OCR), Seahorse XF-96, HCT116 cells
Assay type: cell-based
Details: mean ± SD; HCT116, 24 hr treatment; read-out: IC50 Complex I (FIG. 2)
Here, each record is paired with measured pIC50 data.
Scale for pIC50: -log10 of concentration given in mol/L; no unit attached.

Study these solved cases before continuing.
• NC(=O)NOCCCCCCCCCCCCCC[P+](c1ccccc1)(c1ccccc1)c1ccccc1.O=C([O-])C(F)(F)F [Mito14-HU, trifluoroacetate] = 6.00
• NC(=O)NOCCCCCCCCCCCCCCCCCCCC[P+](c1ccccc1)(c1ccccc1)c1ccccc1.O=C([O-])C(F)(F)F [Mito20-HU, trifluoroacetate] = 6.10

[in] Find pIC50 for NC(=O)NOCCCCCCCCCC[P+](c1ccccc1)(c1ccccc1)c1ccccc1.O=C([O-])C(F)(F)F [Mito10-HU, trifluoroacetate] on mitochondrial complex I (Homo sapiens, UniProt O75251+O75306+P03886) and write it down.
[out] 5.05

[in] Would you please give the reported pIC50 of NC(=O)NOCCCCCCCCCCCC[P+](c1ccccc1)(c1ccccc1)c1ccccc1.O=C([O-])C(F)(F)F [Mito12-HU, trifluoroacetate] with mitochondrial complex I (Homo sapiens, UniProt O75251+O75306+P03886)?
[out] 5.80

[in] Give pIC50 only, for NC(=O)NOCCCCCCCCCCCCCCCC[P+](c1ccccc1)(c1ccccc1)c1ccccc1.O=C([O-])C(F)(F)F [Mito16-HU, trifluoroacetate] , using mitochondrial complex I (Homo sapiens, UniProt O75251+O75306+P03886) data.
[out] 6.10

* * *

Target: mitochondrial complex III (Homo sapiens, UniProt P00156+P47985)
Construct: other: mean ± SD; HCT116, 24 hr treatment; Complex III activity (OCR, % of control); other: 0.1 μM, 24 hr, HCT116; n = 4; other: 0.5 μM, 24 hr, HCT116; other: 0.75 μM, 24 hr, HCT116; other: 1 μM, 24 hr, HCT116; Compl
Experiment: Complex III-dependent oxygen consumption (OCR), Seahorse XF-96, HCT116 cells
Assay type: cell-based
Conditions: mean ± SD; HCT116, 24 hr treatment; read-out: IC50 Complex III (FIG. 2)
Output Yes for records whose IC50 is lower than 3 µM, No for records at or above 3 µM.

[in] Take the compound NC(=O)NOCCCCCCCCCC[P+](c1ccccc1)(c1ccccc1)c1ccccc1.O=C([O-])C(F)(F)F [Mito10-HU, trifluoroacetate] and say whether its IC50 is less than 3 µM.
[out] No

[in] Bench note: check whether NC(=O)NOCCCCCCCCCCCCCCCCCCCC[P+](c1ccccc1)(c1ccccc1)c1ccccc1.O=C([O-])C(F)(F)F [Mito20-HU, trifluoroacetate] shows IC50 below 3 µM
[out] No

[in] Take the compound NC(=O)NOCCCCCCCCCCCC[P+](c1ccccc1)(c1ccccc1)c1ccccc1.O=C([O-])C(F)(F)F [Mito12-HU, trifluoroacetate] and say whether its IC50 is less than 3 µM.
[out] No

[in] Is IC50 of NC(=O)NOCCCCCCCCCCCCCCCC[P+](c1ccccc1)(c1ccccc1)c1ccccc1.O=C([O-])C(F)(F)F [Mito16-HU, trifluoroacetate] strictly below 3 µM?
[out] Yes

[in] # TODO verify IC50 < 3 µM strictly for this compound: NC(=O)NOCCCCCCCCCCCCCC[P+](c1ccccc1)(c1ccccc1)c1ccccc1.O=C([O-])C(F)(F)F [Mito14-HU, trifluoroacetate]
[out] Yes
